# assayed.target: HLA-A*02:01;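 also: lysates heated 10 min at 37–73 °C, complexes pulled down with pan-HLA I antibody, peptide signal by DIA-MS relative to 37 °C, Tm where half the complex is unfolded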
# experiment.notes: thermal melting temperature (Tm) of peptide-HLA complex; higher = more thermostable pHLA complex
# condition: C1R-A*02:01
Over roughly 1,100 sequences, “thermal melting temperature (Tm) of peptide-HLA complex” has its median near 58; the lowest 2% begin near 42. The full list was thinned out, with the lowest values kept by preference.
recorded.metric: thermal melting temperature (°C)
Numbers only, in °C.

Below: 5 sequences and their reported thermal melting temperature.
NIIELVHQV | 57.1
SLDAKEIYL | 50.5
SIHDVTFQV | 57.4
VVWGTVIRV | 58.5
KLMNVDPDSV | 53.8

// for each sequence in input: emit thermal melting temperature
1. RVIGTLEEV
2. LLSDVRFVL
3. FQVDEIYTV

RESULT:
57.6
54.8
56
